System: HIV-1 mutant K65R
Experiment: MT2/XTT combination assay, resistant virus K65R
Type: cell-based
Settings: Human immunodeficiency virus 1, K65R, compound alone (Table 10)
valueKind: pEC50
The value called pEC50 is obtained by taking minus log10 of the concentration in mol/L.

Query block: Name the recorded pEC50 for Nc1nc2c(ncn2C2COC(CO)O2)c(=O)[nH]1 (single isomer, unassigned; (-)) [DXG] .
Result block: 5.40

Query block: Requested field: pEC50. Item: Nc1nc(N)c2ncn(C3COC(CO)O3)c2n1 (single isomer, unassigned; (-)) [DAPD]
Result block: 4.39

====

Experiment: XTT based cytotoxicity assay, PBMC
Type: cell-based
Details: human, PBMCs
valueKind: CC50 at 5 days (µM)
Express your answer in µM, writing the number without its unit.

Query block: Param item = COc1c(C)c2c(c(O)c1C/C=C(\C)CCC(=O)O)C(=O)OC2 [MPA] ; retrieve measured CC50 at 5 days.
Result block: 4.5

====

For each entry below, report its EC50 value.
Tested on: xxLAI strain of HIV-1
Experiment: microbe, parasite or virus in culture
Assay type: cell-based
Conditions: read-out: Mean EC50, 0.01 μM MPA; MT2 cells, with 0.01 μM MPA
Number in nM, nothing else.

Query block: So what's the measured EC50 for this one? Nc1nc2c(ncn2C2COC(CO)O2)c(=O)[nH]1 (single isomer, unassigned; (-))
Result block: 2500

Query block: # EC50 lookup, item Nc1nc(N)c2ncn(C3COC(CO)O3)c2n1 (single isomer, unassigned; (-))
Result block: 22000

Query block: Please give the measured EC50 for this molecule: `Nc1nc(=O)n([C@@H]2CS[C@H](CO)O2)cc1F`
Result block: 620

Query block: I would be grateful if you could share the reported EC50 for `Cc1cn([C@H]2C[C@H](N=[N+]=[N-])[C@@H](CO)O2)c(=O)[nH]c1=O` .
Result block: 300

====

Test system: xxLAI strain of HIV-1
Assay: microbe, parasite or virus in culture
Type: cell-based
Conditions: read-out: Mean EC50, 1 μM RBV; PMBCs, with 1 μM RBV
valueKind: pEC50
Would you please state pEC50, meaning minus log10 of the concentration in mol/L, as a bare number?

Query block: Entry Nc1nc(N)c2ncn(C3COC(CO)O3)c2n1 (single isomer, unassigned; (-)) has what pEC50?
Result block: 5.65

Query block: Returns the measured pEC50 for the input compound. Input: Nc1nc2c(ncn2C2COC(CO)O2)c(=O)[nH]1 (single isomer, unassigned; (-))
Result block: 7.12

Query block: Which measured pEC50 value corresponds to `Cc1cn([C@H]2C[C@H](N=[N+]=[N-])[C@@H](CO)O2)c(=O)[nH]c1=O` ?
Result block: 8.46

Query block: So what's the measured pEC50 for this one? `Nc1nc(NC2CC2)c2ncn([C@H]3C=C[C@@H](CO)C3)c2n1`
Result block: 6.70

====

System: xxLAI strain of HIV-1
Experiment: microbe, parasite or virus in culture
Type: cell-based
Conditions: PBMC, control vs with 0.1 μM MPA
Hi! Could you tag entries with Fold difference in EC50, 0.1 μM MPA below 3 fold as satisfied, and those at or above as not satisfied? Much appreciated.

Query block: Given `Cc1cn([C@H]2C[C@H](N=[N+]=[N-])[C@@H](CO)O2)c(=O)[nH]c1=O` , is recorded Fold difference in EC50, 0.1 μM MPA strictly lower than 3 fold?
Result block: satisfied

Query block: Criterion: Fold difference in EC50, 0.1 μM MPA strictly below 3 fold. Is it met by `Nc1nc(=O)n([C@@H]2CS[C@H](CO)O2)cc1F` ?
Result block: satisfied

Query block: Here's an entry: Nc1nc(N)c2ncn(C3COC(CO)O3)c2n1 (single isomer, unassigned; (-)) . Is its Fold difference in EC50, 0.1 μM MPA below 3 fold?
Result block: not satisfied

Query block: Hello, is Fold difference in EC50, 0.1 μM MPA of the following compound strictly smaller than 3 fold? Nc1nc2c(ncn2C2COC(CO)O2)c(=O)[nH]1 (single isomer, unassigned; (-))
Result block: not satisfied

Query block: is_below(Fold difference in EC50, 0.1 μM MPA, 3 fold) for `Nc1nc(NC2CC2)c2ncn([C@H]3C=C[C@@H](CO)C3)c2n1` ?
Result block: not satisfied

====

Test: XTT based cytotoxicity assay, MT2
Conditions: human, MT2 T-cell line, MT2 cells
valueKind: CC50 at 5 days (µM)
Reply with just the number (in µM).

Query block: Dear colleague, I am looking for the recorded CC50 at 5 days of the following molecule: COc1c(C)c2c(c(O)c1C/C=C(\C)CCC(=O)O)C(=O)OC2 [MPA]
Result block: 5.7

====

Tested on: xxLAI strain of HIV-1
Assay: microbe, parasite or virus in culture
Assay type: cell-based
Conditions: read-out: Mean EC50, 20 μM RBV; PMBCs, with 20 μM RBV
pEC50: −log10 of the molar value.
So I've got a bunch of molecules here, and I need their pEC50 values.

Query block: Using the record for Nc1nc2c(ncn2C2COC(CO)O2)c(=O)[nH]1 (single isomer, unassigned; (-)) , report its pEC50.
Result block: > 8.00

Query block: Would you mind telling me what pEC50 value was observed for `Nc1nc(NC2CC2)c2ncn([C@H]3C=C[C@@H](CO)C3)c2n1` ?
Result block: > 7.52

Query block: Fill in the blank: the reported pEC50 of `Cc1cn([C@H]2C[C@H](N=[N+]=[N-])[C@@H](CO)O2)c(=O)[nH]c1=O` is ____.
Result block: 8.68

Query block: Entry Nc1nc(N)c2ncn(C3COC(CO)O3)c2n1 (single isomer, unassigned; (-)) has what pEC50?
Result block: > 7.52

====

Tested on: xxLAI strain of HIV-1
Test: microbe, parasite or virus in culture
Assay type: cell-based
Conditions: PBMC, control vs with 0.25 μM MPA
Kindly supply the reported Fold difference in EC50, 0.25 μM MPA values for the records listed here.
Enter your answer as a number in fold; do not include the unit.

Query block: Which measured Fold difference in EC50, 0.25 μM MPA value corresponds to `Cc1cn([C@H]2C[C@H](N=[N+]=[N-])[C@@H](CO)O2)c(=O)[nH]c1=O` ?
Result block: 1.8

Query block: I have this compound here, `Nc1nc(=O)n([C@@H]2CS[C@H](CO)O2)cc1F` , and I need its recorded Fold difference in EC50, 0.25 μM MPA.
Result block: 1.8

====

Provide the reported Fold difference in EC50, 0.25 μM MPA of each item.
System: xxLAI strain of HIV-1
Assay: microbe, parasite or virus in culture
Type: cell-based
Conditions: PBMC, control vs with 0.25 μM MPA

Query block: Notebook: pull reported Fold difference in EC50, 0.25 μM MPA for xxLAI strain of HIV-1, entry `Nc1nc(NC2CC2)c2ncn([C@H]3C=C[C@@H](CO)C3)c2n1`
Result block: >50 fold

Query block: Notebook: pull reported Fold difference in EC50, 0.25 μM MPA for xxLAI strain of HIV-1, entry Nc1nc(N)c2ncn(C3COC(CO)O3)c2n1 (single isomer, unassigned; (-))
Result block: >50 fold

Query block: So what Fold difference in EC50, 0.25 μM MPA did Nc1nc2c(ncn2C2COC(CO)O2)c(=O)[nH]1 (single isomer, unassigned; (-)) get with xxLAI strain of HIV-1?
Result block: >50 fold
